target: glutathione S-transferase [GST: P08515]; experiment: indirect ELISA, GST coated
Sequence (P08515 whole entry): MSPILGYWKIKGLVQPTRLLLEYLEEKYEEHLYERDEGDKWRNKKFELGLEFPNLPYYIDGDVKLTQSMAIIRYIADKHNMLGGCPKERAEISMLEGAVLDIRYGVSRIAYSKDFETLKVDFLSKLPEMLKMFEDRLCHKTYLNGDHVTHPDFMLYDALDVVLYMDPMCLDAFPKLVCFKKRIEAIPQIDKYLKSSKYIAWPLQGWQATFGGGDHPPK
Measured ELISA affinity (LogIC50 (oD450nm)) values are reported for all entries that follow.
Reply: number alone, nothing else.

Study these solved cases before continuing.
binder	reported
G58 (VHH) VHH: EVQLVESGGGLVQAGGSLRLSCAGSGDTFSRYTLGWFRQAPGKEREFVAGISWSGGSTSYANSVKGRFTISRDNAKNTMYLQMNSLKPEDTAVYTCAAPGLPGTVVVGASDFYVYWGQGTQVTVSS	1.54
G96 (VHH) VHH: DVQLVESGGGLVQAGGSLKLSCAAFGVTFDINTIAWYRQAPGKQREFVAHITSGGTTYYADSVKARFTMSRDSAKNTVYLQMNNLKPEDTAVYYCNVNPTWPYSGEVDYWGQGTQVTVSS	6.77
G79 (VHH) VHH: DVQLVESGGGLVQAGGSLRLSCATSGRTFSTYAAGWFRQRPGKEREFVATIHWNDGRTLYADSVKGRFTLSRDNAQNTVYLQMNSLKPEDTAVYYCAAYTYRIGSYDVSTSQGYDYWGQGTQVTVSS	2.07

Here is the next item to consider.
Just so you know, measured ELISA affinity (LogIC50 (oD450nm)) for G25 (VHH) VHH: EVQLVESGGGLVQAGGSLRLSCAASGRTFSGRTFSDYPMAWFRQAPGKEREFLATISTSGSRTYYADSVKGRFTISRDNAKDTVYLQMNSLKPEDAAIYYCAARQGSYYSDYNRALPGEYDYWGQGTQVTVSS came out at 1.57
